# TARGET_OF_ASSAY: human Peripheral-type Benzodiazepine Receptor (PBR), TSPO (gene 706)
# PROCEDURE_SUMMARY: NVS_MP_hPBR: NovaScreen (NVS) Membrane Protein Assay for human Peripheral-type Benzodiazepine Receptor (PBR) (AID 2283331);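 note: hits reduce radioligand binding relative to DMSO baseline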
Results filed as inconclusive are left out. The source made the active and inactive calls. Rule for the calls: active = hit-call score of the fitted dose curve at least 0.9, where 1 is the maximum; inconclusive = response in the unintended direction; inactive = score below 0.9.
A correct response names exactly one class from active, inactive

Below, 2 molecules whose answers are already recorded.
| LINE_NOTATION | TARGET_OF_ASSAY | ASSIGNED_CLASS |
| --- | --- | --- |
| Clc1ccc(Nc2nnc(Cc3ccncc3)c3ccccc23)cc1 | human Peripheral-type Benzodiazepine Receptor (PBR), TSPO (gene 706) | active |
| CCOC(=O)CN[C@@H](C(=O)N1CC[C@H]1C(=O)NCc1ccc(/C(N)=N/O)cc1)C1CCCCC1 | human Peripheral-type Benzodiazepine Receptor (PBR), TSPO (gene 706) | active |

Consider the record given below.
INPUT: For this molecule, state the assay outcome: `CCCCCCCCCCCCCCCCCC[N+](C)(C)Cc1ccccc1`
OUTPUT: inactive

----------
# Read-out: Human Leukocyte Antigen - DR isotype (HLADR), HLA-DRA (gene 3122)
# PROCEDURE_SUMMARY: BSK_CASM3C_HLADR: BioMAP Diversity Plus: CASM3C Assay for Human Leukocyte Antigen - DR isotype (HLADR) Biomarker Activity (AID 2283043);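 note: cell-surface HLA-DR protein level quantified by ELISA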
# PARTICULARS: primary human coronary artery smooth muscle cells; actives raise or lower the signal
The source made the active and inactive calls. Rule for the calls: active = hit-call score of the fitted dose curve at least 0.9, where 1 is the maximum; inactive = score below 0.9.
ATTRIBUTE_MEASURED: AC50

Examples from the recorded data:
| MOLECULE | AC50 |
| --- | --- |
| O=C1OC2(c3ccccc31)c1cc(I)c(O)c(I)c1Oc1c2cc(I)c(O)c1I | inactive |
| CN(C)c1ccc(C(=C2C=CC(=[N+](C)C)C=C2)c2ccccc2)cc1 | 39.2 nM (active) |
| CN(C)CCOC(c1ccccc1)c1ccccc1 | inactive |
| O=P(O)(O)CCC(F)(F)C(F)(F)C(F)(F)C(F)(F)C(F)(F)C(F)(F)C(F)(F)C(F)(F)F | inactive |
| CN(CCO)S(=O)(=O)C(F)(F)C(F)(F)C(F)(F)C(F)(F)C(F)(F)C(F)(F)C(F)(F)C(F)(F)F | inactive |
| OCC(F)(F)C(F)(F)C(F)(F)C(F)(F)C(F)(F)C(F)(F)C(F)(F)C(F)(F)C(F)(F)C(F)(F)C(F)(F)F | inactive |

INPUT: Quick one: AC50 for `O=C(O)CCC(F)(F)C(F)(F)C(F)(F)C(F)(F)C(F)(F)F` ?
OUTPUT: inactive

INPUT: Quick one: AC50 for `CS(=O)(=O)c1ccc([C@@H](CC2CCCC2)C(=O)Nc2cnccn2)cc1Cl` ?
OUTPUT: inactive

INPUT: Quick one: AC50 for `CC(=O)Nc1ccc(O)cc1` ?
OUTPUT: inactive

INPUT: Quick one: AC50 for CCC(C)c1ccccc1O (stereo not given) ?
OUTPUT: inactive

----------
# Read-out: Tissue Factor, F3 (gene 2152)
# PROCEDURE_SUMMARY: BSK_LPS_TissueFactor: BioMAP Diversity Plus: LPS Assay for Tissue Factor Biomarker Activity (AID 2283084)
# PARTICULARS: primary human HUVEC with PBMC; actives raise or lower the signal
The source made the active and inactive calls. How the source made its calls: active means hit-call score of the fitted dose curve at least 0.9, where 1 is the maximum; inactive means score below 0.9.
A correct response names exactly one class from true for active, false for inactive

Below, 6 compounds whose answers are already recorded.
| LINE_NOTATION | ASSIGNED_CLASS |
| --- | --- |
| Cc1ccc(N=Nc2c(O)ccc3ccccc23)c(C)c1 | true |
| CCOC(=O)CN[C@@H](C(=O)N1CC[C@H]1C(=O)NCc1ccc(/C(N)=N/O)cc1)C1CCCCC1 | false |
| CN(CCO)S(=O)(=O)C(F)(F)C(F)(F)C(F)(F)C(F)(F)C(F)(F)C(F)(F)C(F)(F)C(F)(F)F | false |
| O=C1OC2(c3ccccc31)c1cc(I)c(O)c(I)c1Oc1c2cc(I)c(O)c1I | true |
| Cc1[nH]nc2c1N=C(c1ccccc1Cl)c1cc([N+](=O)[O-])ccc1N2 | true |
| C[C@]12CC[C@@H]3c4ccc(O)cc4CC[C@H]3[C@@H]1C[C@@H](O)[C@@H]2O | false |

INPUT: For this compound, state the assay outcome: `OCCN1CN(CCO)CN(CCO)C1`
OUTPUT: true

----------
# Read-out: TIMP1, TIMP1 (gene 7076)
# PROCEDURE_SUMMARY: LTEA_HepaRG_TIMP1: Life Technologies and Expression Analysis (LTEA) Assay for TIMP1 using HepaRG (AID 2283534)
# PARTICULARS: mRNA level, 48 h; actives raise or lower the signal
Calls of active or inactive are those of the source. The calls were made as follows: active = hit-call score of the fitted dose curve at least 0.9, where 1 is the maximum; inactive = score below 0.9.
A correct response names exactly one class from active, inactive

Below, 4 compounds whose answers are already recorded.
| COMPOUND | ASSIGNED_CLASS |
| --- | --- |
| CCCCc1oc2ccccc2c1C(=O)c1cc(I)c(OCCN(CC)CC)c(I)c1 | inactive |
| CN(C)CCOC(c1ccccc1)c1ccccc1 | inactive |
| CCCCC(CC)C(=O)O (stereo not drawn) | inactive |
| CCCCCCCCCCCCOS(=O)(=O)O | inactive |

INPUT: For this compound, state the assay outcome: `CCCCC=O`
OUTPUT: inactive

INPUT: For this compound, state the assay outcome: `CC(=O)Nc1ccc(O)cc1`
OUTPUT: inactive

INPUT: For this compound, state the assay outcome: `N=C(N)c1ccc(OCCCCCOc2ccc(C(=N)N)cc2)cc1`
OUTPUT: active

INPUT: For this compound, state the assay outcome: `Cc1[nH]nc2c1N=C(c1ccccc1Cl)c1cc([N+](=O)[O-])ccc1N2`
OUTPUT: active

----------
# PROCEDURE_SUMMARY: ATG_PXRE_CIS: Attagene CIS-FACTORIAL HepG2 Assay for human Pregnane X Receptor Element (PXRE) (AID 2282957)
# PARTICULARS: HepG2 Attagene CIS-FACTORIAL PXRE reporter, mRNA; actives raise or lower the signal
Activity calls are given as the source filed them. How the source made its calls: active means hit-call score of the fitted dose curve at least 0.9, where 1 is the maximum; inactive means score below 0.9.
A correct response names exactly one class from y (active), n (inactive)

| COMPOUND | ASSIGNED_CLASS |
| --- | --- |
| CCCCCCCCCCCCCC[n+]1ccccc1 | y |

Consider the record given below.
INPUT: For this compound, state the assay outcome: CCO[Si](CCC1CCC2OC2C1)(OCC)OCC (centres undefined)
OUTPUT: n

----------
# PROCEDURE_SUMMARY: CCTE_Shafer_MEA_dev_burst_rate: CCTE's Neural Network Formation Assay for Burst Rate, Shafer Lab (AID 2284042)
Calls of active or inactive are those of the source. Rule for the calls: active = hit-call score of the fitted dose curve at least 0.9, where 1 is the maximum; inactive = score below 0.9.
A correct response names exactly one class from active, inactive

Below, 5 compounds whose answers are already recorded.
| LINE_NOTATION | ASSIGNED_CLASS |
| --- | --- |
| FC(F)=C(F)C(F)(F)C(F)(F)C(F)(F)C(F)F | inactive |
| COC(=O)C(F)(F)C(F)(F)C(F)(F)F | inactive |
| C=CC(F)(F)C(F)(F)C(F)(F)C(F)(F)F | inactive |
| O=C(F)C(F)(F)C(F)(F)C(F)(F)C(F)F | inactive |
| O=C(CCCN1CCC(O)(c2ccc(Cl)cc2)CC1)c1ccc(F)cc1 | active |

INPUT: For this compound, state the assay outcome: `O=P(O)(O)CCC(F)(F)C(F)(F)C(F)(F)C(F)(F)C(F)(F)C(F)(F)F`
OUTPUT: inactive

INPUT: For this compound, state the assay outcome: `COC(=O)C(F)(F)C(F)(F)C(F)(F)C(F)(F)C(F)(F)F`
OUTPUT: inactive

INPUT: For this compound, state the assay outcome: `CN(CCO)S(=O)(=O)C(F)(F)C(F)(F)C(F)(F)C(F)(F)C(F)(F)C(F)(F)C(F)(F)C(F)(F)F`
OUTPUT: inactive

INPUT: For this compound, state the assay outcome: `O=CC(F)(F)C(F)(F)C(F)(F)F`
OUTPUT: inactive

INPUT: For this compound, state the assay outcome: `OCC(F)(F)C(F)(F)C(F)(F)C(F)(F)C(F)(F)C(F)(F)C(F)(F)C(F)(F)C(F)(F)C(F)(F)C(F)(F)F`
OUTPUT: inactive

INPUT: For this compound, state the assay outcome: `O=C(OC(=O)C(F)(F)C(F)(F)F)C(F)(F)C(F)(F)F`
OUTPUT: inactive

INPUT: For this compound, state the assay outcome: `CN(C)CCOC(c1ccccc1)c1ccccc1`
OUTPUT: inactive

INPUT: For this compound, state the assay outcome: `O=C(C=C(O)C(F)(F)F)C(F)(F)F`
OUTPUT: inactive

----------
# PROCEDURE_SUMMARY: CCTE_Deisenroth_AIME_384WELL_CTox_Active: Cytotoxicity Assessment (CTOX) in CCTE's 384-well Estrogen Receptor Transactivation Assay with AIME metabolic competence (metabolism positive), Deisenroth Lab (AID 2284037);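 note: chemicals first conditioned 2 h by alginate-bound induced rat liver S9 before cells; activity means signal loss indicating cell death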
Results filed as inconclusive are left out. Activity calls are given as the source filed them. How the source made its calls: active means hit-call score of the fitted dose curve at least 0.9, where 1 is the maximum; inconclusive means response in the unintended direction; inactive means score below 0.9.
A correct response names exactly one class from 1 = active, -1 = inactive

| COMPOUND | ASSIGNED_CLASS |
| --- | --- |
| CCCCCCCCCCCCOS(=O)(=O)O | 1 |

INPUT: For this compound, state the assay outcome: `CCCCCCCCCCCC`
OUTPUT: -1

INPUT: For this compound, state the assay outcome: `CC(=O)Nc1ccc(O)cc1`
OUTPUT: -1

INPUT: For this compound, state the assay outcome: CC(O)COc1ccccc1 (stereo not drawn)
OUTPUT: -1

INPUT: For this compound, state the assay outcome: `Cc1[nH]nc2c1N=C(c1ccccc1Cl)c1cc([N+](=O)[O-])ccc1N2`
OUTPUT: 1

INPUT: For this compound, state the assay outcome: `O=S(=O)(O)c1ccccc1`
OUTPUT: -1

INPUT: For this compound, state the assay outcome: `NC(=NCCCCCCN=C(N)/N=C(\N)Nc1ccc(Cl)cc1)/N=C(\N)Nc1ccc(Cl)cc1`
OUTPUT: 1
